TEST_TARGET: Axl (UniProt P30530)
Sequence (P30530 26-451 limits assumed): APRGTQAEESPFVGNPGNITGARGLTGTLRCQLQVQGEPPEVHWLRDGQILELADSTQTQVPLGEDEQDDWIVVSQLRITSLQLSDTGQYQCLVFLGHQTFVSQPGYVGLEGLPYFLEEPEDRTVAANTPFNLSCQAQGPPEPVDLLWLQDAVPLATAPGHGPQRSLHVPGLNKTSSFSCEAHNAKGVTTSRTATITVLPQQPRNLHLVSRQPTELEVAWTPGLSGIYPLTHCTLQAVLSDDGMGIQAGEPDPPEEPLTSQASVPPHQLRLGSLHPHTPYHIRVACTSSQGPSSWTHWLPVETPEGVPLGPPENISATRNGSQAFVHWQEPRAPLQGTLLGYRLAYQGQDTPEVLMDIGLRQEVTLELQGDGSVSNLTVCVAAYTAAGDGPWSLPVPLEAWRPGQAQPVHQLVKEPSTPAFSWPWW
TEST_NAME: ELISA, 1:3 dilution
Would you mind telling me the reported Affinity ELISA CPE mutant ratio (1:3, pH 6.0/7.4) of each entry?

BINDER	VALUE_MEASURED
LC-F092C (antibody, V domains shown) VH: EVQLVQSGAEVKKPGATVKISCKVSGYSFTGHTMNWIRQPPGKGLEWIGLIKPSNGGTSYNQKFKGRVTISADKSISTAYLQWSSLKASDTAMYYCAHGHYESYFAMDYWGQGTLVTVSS VL: DIQMTQSPSSLSASVGDRVTITCKASQDVSSAVAWYQQKPGQAPRLLIYWASTRHTGVPSRFSGSGSGTEFTLTISSLQPDDFATYYCQEHCSTPLTFGQGTKVEIK	3.86
HC-H100E (antibody, V domains shown) VH: EVQLVQSGAEVKKPGATVKISCKVSGYSFTGHTMNWIRQPPGKGLEWIGLIKPSNGGTSYNQKFKGRVTISADKSISTAYLQWSSLKASDTAMYYCAHGEYESYFAMDYWGQGTLVTVSS VL: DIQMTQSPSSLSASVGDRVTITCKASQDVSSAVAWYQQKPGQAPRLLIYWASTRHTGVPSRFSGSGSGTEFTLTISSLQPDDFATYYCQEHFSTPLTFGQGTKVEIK	2.77
LC-H091V (antibody, V domains shown) VH: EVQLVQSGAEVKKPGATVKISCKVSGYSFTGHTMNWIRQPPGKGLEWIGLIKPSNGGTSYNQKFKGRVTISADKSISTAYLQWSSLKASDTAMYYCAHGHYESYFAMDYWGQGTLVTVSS VL: DIQMTQSPSSLSASVGDRVTITCKASQDVSSAVAWYQQKPGQAPRLLIYWASTRHTGVPSRFSGSGSGTEFTLTISSLQPDDFATYYCQEVFSTPLTFGQGTKVEIK	4.13
HC-S103Q (antibody, V domains shown) VH: EVQLVQSGAEVKKPGATVKISCKVSGYSFTGHTMNWIRQPPGKGLEWIGLIKPSNGGTSYNQKFKGRVTISADKSISTAYLQWSSLKASDTAMYYCAHGHYEQYFAMDYWGQGTLVTVSS VL: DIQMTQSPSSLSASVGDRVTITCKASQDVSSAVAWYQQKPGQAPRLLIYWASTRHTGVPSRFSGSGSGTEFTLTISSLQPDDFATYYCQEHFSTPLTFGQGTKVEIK	0.912

## Task Read off the recorded Affinity ELISA CPE mutant ratio (1:3, pH 6.0/7.4) for HC-H100R (antibody, V domains shown) VH: EVQLVQSGAEVKKPGATVKISCKVSGYSFTGHTMNWIRQPPGKGLEWIGLIKPSNGGTSYNQKFKGRVTISADKSISTAYLQWSSLKASDTAMYYCAHGRYESYFAMDYWGQGTLVTVSS VL: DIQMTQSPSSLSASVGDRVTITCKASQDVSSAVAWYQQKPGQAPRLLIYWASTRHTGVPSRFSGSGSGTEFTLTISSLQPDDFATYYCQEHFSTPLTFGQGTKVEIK
## Result 1.88
